All figures here come from ChEMBL document CHEMBL3885861.

Species: Rattus norvegicus
Procedure Details: Open TG-GATES - Regimen: Daily Repeat
Assay type: toxicity, organism-based, Sprague-Dawley
Design: regimen Daily Repeat, gender Male, age 6 weeks
Test Settings: in vivo, po, 100 mg/kg, […], tissue Blood, route gavage, dose level Low, time 28 day
// values below are reported RBC
Measured Endpoint: RBC (x10_4/ul)

* O=C(OC[C@H]1O[C@@H](OC(=O)c2cc(O)c(O)c(OC(=O)c3cc(O)c(O)c(O)c3)c2)[C@H](OC(=O)c2cc(O)c(O)c(OC(=O)c3cc(O)c(O)c(O)c3)c2)[C@@H](OC(=O)c2cc(O)c(O)c(OC(=O)c3cc(O)c(O)c(O)c3)c2)[C@@H]1OC(=O)c1cc(O)c(O)c(OC(=O)c2cc(O)c(O)c(O)c2)c1)c1cc(O)c(O)c(OC(=O)c2cc(O)c(O)c(O)c2)c1 [TANNIC ACID] | 757.4
* Cc1nnc2n1-c1ccc(Cl)cc1C(c1ccccc1Cl)=NC2 [TRIAZOLAM] | 798
* CN/C(=N/CCSCc1nc[nH]c1C)NC#N [CIMETIDINE] | 758.2
* CCOc1ccc(NC(C)=O)cc1 [PHENACETIN] | 792.8
* CNC(=C[N+](=O)[O-])NCCSCc1ccc(CN(C)C)o1 [RANITIDINE] | 797.4
* COC(=O)C1=C(C)NC(C)=C(C(=O)OC)C1c1ccccc1[N+](=O)[O-] [NIFEDIPINE] | 660.2

----------
Species: Rattus norvegicus
Procedure Details: Open TG-GATES - Regimen: Single
Assay type: toxicity, organism-based, Sprague-Dawley
Parameters: regimen Single, gender Male, age 6 weeks
Test Settings: in vivo, po, 100 mg/kg, 6 h, tissue Plasma, route gavage, dose level Low
Measured Endpoint: BUN (mg/dL)

* O=C(OC[C@H]1O[C@@H](OC(=O)c2cc(O)c(O)c(OC(=O)c3cc(O)c(O)c(O)c3)c2)[C@H](OC(=O)c2cc(O)c(O)c(OC(=O)c3cc(O)c(O)c(O)c3)c2)[C@@H](OC(=O)c2cc(O)c(O)c(OC(=O)c3cc(O)c(O)c(O)c3)c2)[C@@H]1OC(=O)c1cc(O)c(O)c(OC(=O)c2cc(O)c(O)c(O)c2)c1)c1cc(O)c(O)c(OC(=O)c2cc(O)c(O)c(O)c2)c1 | 12.6
* CNC(=C[N+](=O)[O-])NCCSCc1ccc(CN(C)C)o1 | 9.6
* COC(=O)C1=C(C)NC(C)=C(C(=O)OC)C1c1ccccc1[N+](=O)[O-] | 32.4
* Cc1nnc2n1-c1ccc(Cl)cc1C(c1ccccc1Cl)=NC2 | 7.6
* CN/C(=N/CCSCc1nc[nH]c1C)NC#N | 9.6

----------
Organism: Rattus norvegicus
Procedure Details: Open TG-GATES - Regimen: Single
Assay type: toxicity, organism-based, Sprague-Dawley
Parameters: regimen Single, gender Male, age 6 weeks
Test Settings: in vivo, po, 0 mg/kg, 9 h, tissue Plasma, route gavage, dose level Control
Decide by ALP: equal to or exceeding 1000 IU/L means criterion met, less means criterion not met.

- Cc1nnc2n1-c1ccc(Cl)cc1C(c1ccccc1Cl)=NC2: criterion met
- CN/C(=N/CCSCc1nc[nH]c1C)NC#N: criterion not met
- NC1=NC(=O)C(c2ccccc2)O1 (centres undefined): criterion met
- CC(C)NNC(=O)c1ccncc1: criterion met
- CN(C)CCC(c1ccc(Cl)cc1)c1ccccn1 (centres undefined): criterion met
- O=C(OC[C@H]1O[C@@H](OC(=O)c2cc(O)c(O)c(OC(=O)c3cc(O)c(O)c(O)c3)c2)[C@H](OC(=O)c2cc(O)c(O)c(OC(=O)c3cc(O)c(O)c(O)c3)c2)[C@@H](OC(=O)c2cc(O)c(O)c(OC(=O)c3cc(O)c(O)c(O)c3)c2)[C@@H]1OC(=O)c1cc(O)c(O)c(OC(=O)c2cc(O)c(O)c(O)c2)c1)c1cc(O)c(O)c(OC(=O)c2cc(O)c(O)c(O)c2)c1: criterion not met
- CNC(=C[N+](=O)[O-])NCCSCc1ccc(CN(C)C)o1: criterion not met
- CCCc1cc(=O)[nH]c(=S)[nH]1: criterion not met
- Nc1c2c(nc3ccccc13)CCCC2: criterion met
- CS(=O)(=O)O.Cc1ccc(NC(=O)c2ccc(CN3CCN(C)CC3)cc2)cc1Nc1nccc(-c2cccnc2)n1 [IMATINIB MESYLATE]: criterion met
- CN1C(=O)CCS(=O)(=O)C1c1ccc(Cl)cc1 (centres undefined): criterion met
- CCOc1ccc(NC(C)=O)cc1: criterion met
- Brc1ccccc1: criterion met
- COC(=O)C1=C(C)NC(C)=C(C(=O)OC)C1c1ccccc1[N+](=O)[O-]: criterion met
